- Test: Solubility study of Form A in de-ionized water and 20 mM phosphate buffer at pH 3.2 (HPLC, XRPD of solids)
- Assay type: physicochemical
- Experimental parameters: de-ionized water, pH 6.9, thermodynamic from solid; DI water, pH (initial) 6.9, ambient temperature; read-out: Solubility mg/mL (1 day)
Measure: solubility at 1 day

Task: Find the measured solubility at 1 day of CCS(=O)(=O)c1cccc(-c2cc(C(=O)NC3CCN(C)CC3)c(C)c3[nH]c4ncc(C)cc4c23)c1 [Compound I Form A] and report it.
Output: < 0.1 mg/mL

----------
- Test: Solubility study of Form A in de-ionized water and 20 mM phosphate buffer at pH 3.2 (HPLC, XRPD of solids)
- Type: physicochemical
- Experimental parameters: aqueous buffer, thermodynamic from solid; Phosphate buffer (20 mM), pH (initial) 3.2, pH 3.4 at 1 week, ambient temperature; read-out: Solubility mg/mL (1 week)
Measure: solubility at 1 week

Task: Return the recorded solubility at 1 week value; entry: CCS(=O)(=O)c1cccc(-c2cc(C(=O)NC3CCN(C)CC3)c(C)c3[nH]c4ncc(C)cc4c23)c1 [Compound I Form A]
Output: < 0.1 mg/mL
